Exercise: state measured IC50 for each of the compounds provided.
# TARGET_SYSTEM: MCL-1/Bim interaction (recombinant human MCL-1 protein, residues 171-327; biotinylated human Bim peptide, residues 51-76) (Homo sapiens (Human))
# Sequence (Q07820 171-327): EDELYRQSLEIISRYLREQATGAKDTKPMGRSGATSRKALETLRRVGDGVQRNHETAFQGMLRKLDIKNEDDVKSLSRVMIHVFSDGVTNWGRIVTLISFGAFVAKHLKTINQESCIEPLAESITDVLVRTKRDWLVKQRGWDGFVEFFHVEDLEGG
# ASSAY_PROCEDURE: MCL-1/Bim Binding AlphaLISA Assay
# RECORDED_CONDITIONS: 0.0625 nM 6xHis-Mcl-1 (171-327), 0.0625 nM biotinylated-Bim peptide
State the result as a value with its unit after it.

INSERT INTO results (compound, observed) VALUES
  ('CO[C@H]1/C=C/C[C@H](C)C[S@@](=O)(NC(=O)N2CC(C)(OC)C2)=NC(=O)c2ccc3c(c2)N(C[C@@H]2CC[C@H]21)C[C@@]1(CCCc2cc(Cl)ccc21)CO3', '42 pM'),
  ('CO[C@H]1/C=C/C[C@H](C)C[S@@](=O)(NC(=O)c2cc(CN3CCN4CCOC[C@@H]4C3)n(C)c2)=NC(=O)c2ccc3c(c2)N(C[C@@H]2CC[C@H]21)C[C@@]1(CCCc2cc(Cl)ccc21)CO3', '33 pM');

Consider the following items and state reported IC50 for each.
1. CO[C@H]1CCN(C(=O)N[S@@]2(=O)=NC(=O)c3ccc4c(c3)N(C[C@@H]3CC[C@H]3[C@@H](OC)/C=C/C[C@H](C)C2)C[C@@]2(CCCc3cc(Cl)ccc32)CO4)C1
2. CO[C@H]1/C=C/C[C@H](C)C[S@@](=O)(NC(=O)c2cn(C)nc2Cl)=NC(=O)c2ccc3c(c2)N(C[C@@H]2CC[C@H]21)C[C@@]1(CCCc2cc(Cl)ccc21)CO3
3. CO[C@H]1/C=C/C[C@H](C)C[S@@](=O)(NC(=O)N[C@H]2CC23CCOC3)=NC(=O)c2ccc3c(c2)N(C[C@@H]2CC[C@H]21)C[C@@]1(CCCc2cc(Cl)ccc21)CO3 (single isomer, unassigned)

["84 pM", "99 pM", "32 pM"]

###

# Tested on: SKBR3 cells
# ASSAY_PROCEDURE: SKBR3 Cell Viability Assay (CellTiter Glo)
# Type: cell-based
# RECORDED_CONDITIONS: 72 hours, CellTiter Glo luminescence, read-out: MCL-1 CV SKBR3 EC50
PROPERTY_MEASURED: pEC50
Numbers only, as −log10 of the molar value.

Here is how some compounds turned out for pEC50.
INSERT INTO results (compound, observed) VALUES
  ('CO[C@H]1/C=C/C[C@H](C)C[S@@](=O)(NC(=O)N[C@H]2C[C@@H]2c2cnn(C)c2)=NC(=O)c2ccc3c(c2)N(C[C@@H]2CC[C@H]21)C[C@@]1(CCCc2cc(Cl)ccc21)CO3 (single isomer, unassigned)', 7.33),
  ('CC[C@@H]1CC/C=C/[C@H](OC)[C@@H]2CC[C@H]2CN2C[C@@]3(CCCc4cc(Cl)ccc43)COc3ccc(cc32)C(=O)N=[S@@]1(=O)NC(=O)CCc1ccnn1C', 6.43),
  ('COC1Cc2cc(C(=O)N[S@@]3(=O)=NC(=O)c4ccc5c(c4)N(C[C@@H]4CC[C@H]4[C@@H](OC)/C=C/C[C@H](C)C3)C[C@@]3(CCCc4cc(Cl)ccc43)CO5)cn2C1 (some centres unmarked)', 7.23),
  ('CCOC(=O)N[S@]1(=O)=NC(=O)c2ccc3c(c2)N(C[C@@H]2CC[C@H]2[C@@H](OC)/C=C/CCC1)C[C@@]1(CCCc2cc(Cl)ccc21)CO3', 5.11);

Provide the documented pEC50 with SKBR3 cells as the system for CCNC(=O)N[S@@]1(=O)=NC(=O)c2ccc3c(c2)N(C[C@@H]2CC[C@H]2[C@@H](OC)CCCCC1)C[C@@]1(CCCc2cc(Cl)ccc21)CO3 [Example 14]
6.45

###

# TARGET_SYSTEM: MCL-1/Bim interaction (recombinant human MCL-1 protein, residues 171-327; biotinylated human Bim peptide, residues 51-76) (Homo sapiens (Human))
# ASSAY_PROCEDURE: MCL-1/Bim Binding AlphaLISA Assay
# RECORDED_CONDITIONS: 0.0625 nM 6xHis-Mcl-1 (171-327), 0.0625 nM biotinylated-Bim peptide
Please provide measured pIC50 for the entries that follow.
Answers are plain numbers, as −log10 of the molar value.

Worked examples follow.
INSERT INTO measurements (compound, property_measured, observed) VALUES
  ('COCC1(C)Cn2cc(C(=O)N[S@@]3(=O)=NC(=O)c4ccc5c(c4)N(C[C@@H]4CC[C@H]4[C@@H](O)/C=C/C[C@H](C)[C@H]3C)C[C@@]3(CCCc4cc(Cl)ccc43)CO5)cc2CO1 (stereo partly shown)', 'pIC50', 10.02),
  ('COC1CN(c2nn(C)cc2C(=O)N[S@@]2(=O)=NC(=O)c3ccc4c(c3)N(C[C@@H]3CC[C@H]3[C@@H](OC)/C=C/C[C@H](C)C2)C[C@@]2(CCCc3cc(Cl)ccc32)CO4)C1', 'pIC50', 9.08),
  ('COc1nn(C)cc1C(=O)N[S@@]1(=O)=NC(=O)c2ccc3c(c2)N(C[C@@H]2CC[C@H]2[C@@H](OC(=O)CN(C)C)/C=C/C[C@H](C)C1)C[C@@]1(CCCc2cc(Cl)ccc21)CO3', 'pIC50', 10.40),
  ('CO[C@H]1/C=C/CCC[S@@](=O)(NC(=O)CCn2cc(Cl)cn2)=NC(=O)c2ccc3c(c2)N(C[C@@H]2CC[C@H]21)C[C@@]1(CCCc2cc(Cl)ccc21)CO3', 'pIC50', 9.70);

// each listed compound needs a value for pIC50
1. CC[C@@H]1CC1NC(=O)N[S@@]1(=O)=NC(=O)c2ccc3c(c2)N(C[C@@H]2CC[C@H]2[C@@H](OC)/C=C/C[C@H](C)C1)C[C@@]1(CCCc2cc(Cl)ccc21)CO3 (stereo partly shown)
2. CCn1cc(C(=O)N[S@@]2(=O)=NC(=O)c3ccc4c(c3)N(C[C@@H]3CC[C@H]3[C@@H](OC)/C=C/C[C@H](C)C2)C[C@@]2(CCCc3cc(Cl)ccc32)CO4)cn1
3. COC1CCn2cc(C(=O)N[S@@]3(=O)=NC(=O)c4ccc5c(c4)N(C[C@@H]4CC[C@H]4[C@@H](OC)/C=C/C[C@H](C)C3)C[C@@]3(CCCc4cc(Cl)ccc43)CO5)cc2C1 (stereo partly shown)
4. CO[C@H]1/C=C/C[C@H](C)C[S@@](=O)(NC(=O)N2CC3(CCO3)C2)=NC(=O)c2ccc3c(c2)N(C[C@@H]2CC[C@H]21)C[C@@]1(CCCc2cc(Cl)ccc21)CO3
5. COc1nn(C)cc1C(=O)N[S@@]1(=O)=NC(=O)c2ccc3c(c2)N(C[C@@H]2CC[C@H]2[C@@H](OC)/C=C/[C@H](OC(C)=O)[C@H](C)C1)C[C@@]1(CCCc2cc(Cl)ccc21)CO3

9.93
10.14
9.85
10.57
10.21

Would you mind giving pIC50 for every compound in the list below?
1. CO[C@H]1/C=C/C[C@H](C)C[S@@](=O)(NC(=O)NC2CC2CC(F)F)=NC(=O)c2ccc3c(c2)N(C[C@@H]2CC[C@H]21)C[C@@]1(CCCc2cc(Cl)ccc21)CO3 (single isomer, unassigned)
2. CO[C@H]1/C=C\C[C@H](C)[C@@H](C)[S@@](=O)(NC(=O)COC2CCOCC2)=NC(=O)c2ccc3c(c2)N(C[C@@H]2CC[C@H]21)C[C@@]1(CCCc2cc(Cl)ccc21)CO3

1. 10.07
2. 9.99

Return reported pIC50 values for all items listed beneath this line.
1. CO[C@H]1/C=C/C[C@H](C)C[S@@](=O)(NC(=O)N2CC(Oc3ccncc3)C2)=NC(=O)c2ccc3c(c2)N(C[C@@H]2CC[C@H]21)C[C@@]1(CCCc2cc(Cl)ccc21)CO3
2. CO[C@H]1/C=C/C[C@H](C)C[S@@](=O)(NC(=O)c2cc(Cl)n(C)c2)=NC(=O)c2ccc3c(c2)N(C[C@@H]2CC[C@H]21)C[C@@]1(CCCc2cc(Cl)ccc21)CO3
3. COc1nn(C)cc1C(=O)N[S@@]1(=O)=NC(=O)c2ccc3c(c2)N(C[C@@H]2CC[C@H]2[C@@H](OC)/C=C/[C@H](OC(F)F)[C@H](C)C1)C[C@@]1(CCCc2cc(Cl)ccc21)CO3
4. CO[C@H]1/C=C/C[C@H](C)C[S@@](=O)(NC(=O)c2cn(C)nc2N(C)C)=NC(=O)c2ccc3c(c2)N(C[C@@H]2CC[C@H]21)C[C@@]1(CCCc2cc(Cl)ccc21)CO3
5. CCN(C)C(=O)N[S@]1(=O)=NC(=O)c2ccc3c(c2)N(C[C@@H]2CC[C@H]2[C@@H](OC)/C=C/CCC1)C[C@@]1(CCCc2cc(Cl)ccc21)CO3
6. CO[C@H]1/C=C/C[C@H](C)C[S@@](=O)(NC(=O)NC2CC3(COC3)C2)=NC(=O)c2ccc3c(c2)N(C[C@@H]2CC[C@H]21)C[C@@]1(CCCc2cc(Cl)ccc21)CO3
7. CO[C@H]1/C=C/C[C@H](C)C[S@@](=O)(NC(=O)c2cc3n(c2)CC=C3)=NC(=O)c2ccc3c(c2)N(C[C@@H]2CC[C@H]21)C[C@@]1(CCCc2cc(Cl)ccc21)CO3
8. CO[C@H]1/C=C/CCC[S@@](=O)(NC(=O)CC(F)(F)F)=NC(=O)c2ccc3c(c2)N(C[C@@H]2CC[C@H]21)C[C@@]1(CCCc2cc(Cl)ccc21)CO3

1. 10.28
2. 9.99
3. 10.24
4. 10.12
5. 7.98
6. 10.19
7. 9.67
8. 9.10
